# target.under.test: Alternative oxidase, mitochondrial (Trypanosoma brucei brucei)
# Sequence (Q26710 whole entry): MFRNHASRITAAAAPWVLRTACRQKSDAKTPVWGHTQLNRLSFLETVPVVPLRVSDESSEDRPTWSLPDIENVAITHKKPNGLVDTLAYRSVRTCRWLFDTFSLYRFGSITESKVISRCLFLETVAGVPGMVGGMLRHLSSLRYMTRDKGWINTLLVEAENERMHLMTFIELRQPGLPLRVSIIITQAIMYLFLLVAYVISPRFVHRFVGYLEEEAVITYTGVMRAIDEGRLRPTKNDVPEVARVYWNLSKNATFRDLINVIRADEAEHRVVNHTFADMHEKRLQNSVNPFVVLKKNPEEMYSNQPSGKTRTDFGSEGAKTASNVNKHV
# method: Inhibition of recombinant Trypanosoma brucei brucei alternative oxidase using ubiquinol as substrate preincubated for 2 mins followed by substrate addition by UV-Vis spectrophotometry
# key: entry, value: pIC50
Interpret pIC50 as the negative base-10 log of the concentration measured in mol/L.

Cc1cc[n+](CCCCCCCCCCCCCCOC(=O)c2c(O)cc(O)c(Cl)c2C)cc1: 6.14
Cc1cc[n+](CCCCCCCCCCCCCCOc2cc(C)c(C(=O)O)c(O)c2)cc1: 5.74
COC(=O)c1c(C)cc(OCCCCCCCCCCCCCC[n+]2ccc(/C=C/c3cc4c5c(c3O)CCCN5CCC4)cc2)cc1O: 7.38
Cc1cc(O)cc(O)c1C(=O)OCCCCCCCCCCCCCC[n+]1ccc(/C=C/c2cc3c4c(c2O)CCCN4CCC3)cc1.[Br-]: 6.44

Query block: Quick one: pIC50 for `Cc1c(Cl)c(O)cc(O)c1C(=O)OCCCCCCCCCCCCCCBr` ?
Result block: 6.12

Query block: What do you get for `Cc1cc(O)cc(OCCCCCCCCCCCCCC[n+]2ccc(/C=C/c3cc4c5c(c3O)CCCN5CCC4)cc2)c1.[Br-]` ?
Result block: 6.84

Query block: What do you get for `Cc1cc[n+](CCCCCCCCCCCCCCOC(=O)c2c(C)c(Cl)c(O)c(Cl)c2O)cc1` ?
Result block: 6.04
